These data points were gathered from PubChem BioAssay (NCI).

tested on: U251 CNS; assay: NCI-60 one-dose screen, 48 h; settings: 10 µM unless noted
Compounds without any hit were thinned out: in the full panel of roughly 83,000, 20% have a hit. Calls of active or inactive are those of the source. The calls were made as follows: active = growth percent below 10; inactive = the rest.
Pick from active, inactive when you respond.

Short answer needed: outcome of this test for COC(=O)CCCCN=Cc1c(O)c(O)c(C(C)C)c2cc(C)c(-c3c(C)cc4c(C(C)C)c(O)c(O)c(C=NCCCCC(=O)OC)c4c3O)c(O)c12 ?
inactive

Input Clc1ccc([I+]c2ccc(Cl)cc2Cl)c(Cl)c1
active

Input O=C(Nc1cccc(Cl)c1)c1cc([N+](=O)[O-])ccc1O
inactive

Input COc1cc(CCn2nnc3c(NCCCCO)ncnc32)cc(OC)c1
inactive

Input CC(=O)Nc1nc(C(=O)N2N=C(C)/C(=C/c3ccc(Cl)cc3)C2=O)cs1
inactive

Input CC1=NN2C(=NC3=C(CCC/C3=C\c3ccc(Cl)cc3)C2c2ccc(Cl)cc2)S1 (configuration not stated)
inactive

Input CCCOC(=O)C1(O)CCCC1
inactive

Input C=C1C(=O)O[C@H]2[C@H]1CC/C(COC(=O)NCCc1ccc(OC)cc1)=C\CC[C@@]1(C)O[C@@H]21
inactive

Input Cn1cc(C=O)c2ccccc21
inactive

Input CCCCCCc1nc2c(c(C)nn2-c2ccccc2)c2c1CCCCC2
inactive

Input Cc1cc(C(=O)CSc2nc3ccccc3c(=O)[nH]2)c(C)n1C
inactive

Input O=c1oc2cc(OS(=O)(=O)c3ccc(F)cc3)ccc2c2c1CCCCC2
inactive

Input c1cc(-c2ccc3c(c2)OCO3)n2nccc2n1
inactive

Input Cc1ccc2nc(SCn3nnc4ccccc4c3=O)[nH]c2c1
inactive

Input COc1ccc(/C=C/C(=O)c2cc(OC)c(OC)c(OC)c2)cc1OCc1cn(Cc2ccc(F)cc2)nn1
inactive

Input COc1ccc(C(=O)c2cc(OC)c(OC)c(OC)c2)cc1/C=C/C(=O)c1ccc2c(c1)OCO2
active

Input COc1cc(C(=O)OCCCCCCCCCCC[P+](c2ccccc2)(c2ccccc2)c2ccccc2)ccc1O
active

Input COc1cc(Cn2c(SCC(=O)Nc3cc(OC)c(OC)c(OC)c3)nc3ccccc3c2=O)cc(OC)c1OC
inactive

Input COc1ccc(Cn2cc(COc3cc(/C=C/C(=O)c4cc(OC)c(OC)c(OC)c4)ccc3OC)nn2)cc1
inactive

Input COc1cccc2cc(-c3cc4ccccc4[nH]3)c(=NC(=O)c3ccc(Cl)cc3)oc12
inactive

Input Cc1ccc2c(c1)ncn2-c1ncnc2c1CC(C)c1ccccc1N2C (configuration not stated)
inactive

Input CC(=O)Nc1ccc(S(=O)(=O)NC(CCC(=O)Nc2ccc(Cl)cc2)C(=O)O)cc1 (configuration not stated)
inactive

Input O=C1OC(c2ccccc2)=N/C1=C\c1ccc([N+](=O)[O-])cc1
inactive

Input COc1cccc2nc(Nc3ccc(NC(=O)c4ccc5ncccc5c4)cc3)ccc12
inactive

Input CCN(Cc1ccccc1)c1ccc(SC#N)cc1
inactive

Input O=C(Nc1ccc(Cl)cc1)c1cc(-c2ccc(F)cc2)c2sc(=O)[nH]c2n1
active

Input COc1ccc(-c2nc3sccn3c2-c2ccnc(NCCCNS(=O)(=O)c3ccc4ccccc4c3)n2)cc1
inactive

Input COC(=O)c1ccc(C)cc1
inactive

Input COc1cc(NCCN=C(N)NC(N)=NC(C)C)c2ncccc2c1
inactive

Input COc1ccc(/C=C(\C#N)c2ccc([N+](=O)[O-])cc2)c2ccccc12
inactive

Input CNC(=O)Cc1nc(-c2cccc(NS(=O)(=O)c3c(F)cccc3F)c2F)c(-c2ccnc(Nc3ccccc3)n2)s1
inactive

Input O=C1Nc2ccc(Br)cc2C1=N/C=c1\[nH]c(=O)/c(=C/c2ccc(Cl)cc2)s1
inactive

Input O=C(Nc1ccc(F)c(Cl)c1)c1n[nH]c(=O)c2ccccc12
inactive

Input NC(N)=NC(N)=Nc1ccccc1-c1ccccc1
inactive

Input COc1ccc(N=C2NN=C(c3ccc(F)cc3)CS2)cc1OC
inactive

Input CC/C=C\C[C@H]1C/C=C2/C(=O)C(Cl)=C[C@@H]2C/C=C\CCCC(=O)O1
active

Input Nc1c(C(=O)Nc2cccc(Cl)c2Cl)sc2nc3c(cc12)C(=O)CCC3
inactive

Input COC(=O)C(CC(=O)c1ccc(-c2ccccc2)cc1)c1ccccc1 (configuration not stated)
inactive

Input O=C(CN1CCOCC1)Nc1ccc(-c2nc3ccccc3s2)cc1
inactive

Input O=C(COc1ccccc1)N1N=C(c2ccc(Cl)cc2)CC1c1c[nH]c2ccccc12 (configuration not stated)
inactive

Input CC(=O)/C=C/c1cc2cc(Cl)ccc2[nH]c1=O
inactive

Input CC(Br)C(OC(=O)c1ccccc1Cl)c1cc2c(cc1Br)OCO2 (configuration not stated)
inactive
